Source: patent US20100120762A1

Record form. Attribute: IC50. Fill in for each entry.
# experimental.target: PDE2A (NM002599) (Homo sapiens, UniProt O00408)
# Construct: made in house; host or cells: baculovirus / SF21 insect cells
# Sequence (O00408 whole entry): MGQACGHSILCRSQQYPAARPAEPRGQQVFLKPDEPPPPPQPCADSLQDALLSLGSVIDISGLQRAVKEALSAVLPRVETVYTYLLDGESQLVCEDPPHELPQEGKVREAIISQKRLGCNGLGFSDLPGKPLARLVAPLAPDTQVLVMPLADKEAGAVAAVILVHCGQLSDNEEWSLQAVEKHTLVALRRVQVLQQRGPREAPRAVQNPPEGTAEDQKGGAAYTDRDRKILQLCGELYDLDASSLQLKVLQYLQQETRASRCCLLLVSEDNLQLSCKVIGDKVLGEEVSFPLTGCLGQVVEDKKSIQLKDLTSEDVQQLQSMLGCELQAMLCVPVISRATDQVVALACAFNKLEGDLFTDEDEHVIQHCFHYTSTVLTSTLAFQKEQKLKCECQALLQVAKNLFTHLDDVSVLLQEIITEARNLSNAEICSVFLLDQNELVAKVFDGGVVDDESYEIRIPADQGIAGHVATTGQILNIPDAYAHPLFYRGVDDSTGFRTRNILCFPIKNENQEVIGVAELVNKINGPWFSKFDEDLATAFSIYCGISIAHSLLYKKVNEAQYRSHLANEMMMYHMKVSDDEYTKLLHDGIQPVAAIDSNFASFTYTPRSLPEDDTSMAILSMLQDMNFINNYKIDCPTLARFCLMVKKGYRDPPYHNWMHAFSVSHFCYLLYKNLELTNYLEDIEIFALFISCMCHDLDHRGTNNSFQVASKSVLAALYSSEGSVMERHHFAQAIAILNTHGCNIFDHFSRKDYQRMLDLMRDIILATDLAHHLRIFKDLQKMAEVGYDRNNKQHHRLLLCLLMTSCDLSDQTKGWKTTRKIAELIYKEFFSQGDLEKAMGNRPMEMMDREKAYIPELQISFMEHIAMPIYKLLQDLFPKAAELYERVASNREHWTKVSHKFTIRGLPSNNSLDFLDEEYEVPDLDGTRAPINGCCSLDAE
# protocol.summary: Inhibition of recombinant PDE2A (expressed in baculovirus/SF21-cells)
# Assay type: biochemical
# condition: recombinant PDE2A, 0.5 μM [3H]-cAMP, 1000 nM cGMP, 37° C., 30 minutes, SPA; read-out: PDE2A IC50

[Q] // returns reported IC50 for input "COc1ccc2nnc3c(C)nc(-c4cccc(OC)c4F)n3c2n1"
[A] 109 nM

[Q] For "COc1cc(-c2nc(C)c3nnc4ccc(OC)nc4n23)cc(C(F)(F)F)c1" , what is its reported IC50?
[A] > 1000 nM

[Q] Given "COc1ccc2nnc3c(C)nc(-c4cc(C)ccc4Cl)n3c2n1" , state its recorded IC50.
[A] 4.37 nM

[Q] Which IC50 value belongs to "COc1ccc2nnc3c(C)nc(-c4cscc4C)n3c2n1" ?
[A] 51.2 nM

[Q] Query (compound): "COc1ccnc2c1nnc1c(C)nc(-c3cc(Cl)ccc3Cl)n12" ; field requested: IC50
[A] 171 nM

[Q] Value lookup for IC50; key = "COc1ccnc2c1nnc1c(C)nc(-c3cccnc3C)n12"
[A] 1150 nM

[Q] Entry "COc1ccc2nnc3c(C)nc(CC(C)C)n3c2n1" has what IC50?
[A] 30.3 nM

[Q] Which IC50 is reported for this compound? "COc1ccc2nnc3c(C)nc(-c4cc(F)ccc4C)n3c2n1"
[A] 24.3 nM

[Q] Quick one: IC50 of "COc1ccc2nnc3c(C)nc(-c4ccccc4OC)n3c2n1" ?
[A] 108 nM

[Q] Reported IC50, compound "COc1ccc2nnc3c(C)nc(-c4ccc(OC)c(Cl)c4)n3c2n1" : ____
[A] 772 nM

[Q] # query: IC50 of entry "COc1ccc2nnc3c(C)nc(-c4cccnc4)n3c2n1"
[A] 144 nM

[Q] Quick one: IC50 of "COc1ccc2nnc3c(C)nc(-c4cccc(F)c4Cl)n3c2n1" ?
[A] 17.2 nM

[Q] I'd like to know its IC50. The compound in question is "CCOc1cccc(-c2nc(C)c3nnc4ccc(OC)nc4n23)c1"
[A] 148 nM

[Q] Dear colleague, I am looking for the recorded IC50 of the following compound: "COc1ccc2nnc3c(C)nc(-c4cc(F)cc(C(N)=O)c4)n3c2n1"
[A] 279 nM

[Q] Need IC50, item "COc1ccc2nnc3c(C)nc(-c4ccccc4)n3c2n1"
[A] 89.3 nM

[Q] Name the recorded IC50 for CCC(C)c1nc(C)c2nnc3ccc(OC)nc3n12 (centres unmarked) .
[A] 136 nM

[Q] Name the reported IC50 value associated with the compound "COc1ccc2nnc3c(C)nc(-c4ccc(Cl)c(C(N)=O)c4)n3c2n1"
[A] 639 nM

[Q] Reported IC50, compound "COc1ccc2nnc3c(C)nc(-c4ccc(F)c(OC)c4)n3c2n1" : ____
[A] 26.4 nM

[Q] Given the entry "COc1ccc2nnc3c(C)nc(-c4ccc(F)c(Cl)c4)n3c2n1" , report its measured IC50.
[A] 73.7 nM

[Q] Could you tell me which IC50 is on file for "COc1ccc2nnc3cnc(-c4ccccc4Cl)n3c2n1" ?
[A] 96.5 nM

[Q] So what's the measured IC50 for this one? "Cc1cn(-c2ccc3nnc4c(C)nc(-c5cc(Cl)ccc5Cl)n4c3n2)c(-c2cc(Cl)ccc2Cl)n1"
[A] 41 nM

[Q] Item "COc1ccc2nnc3c(C)nc(-c4cccc(C(C)C)c4)n3c2n1" has what recorded IC50?
[A] 374 nM

[Q] Find the recorded IC50 belonging to "COc1ccc2nnc3c(C)nc(-c4cnn(C)c4)n3c2n1" and report it.
[A] 523 nM

[Q] Can you look up the measured IC50 of "Cc1nc(-c2ccccc2Cl)n2c1nnc1ccc(O)nc12" for me?
[A] 3.25 nM

[Q] For "COc1ccc2nnc3c(C)nc(-c4cccc(Cl)c4Cl)n3c2n1" , what is its reported IC50?
[A] 49.3 nM

[Q] Please give the measured IC50 for this compound: "COc1ccc2nnc3c(C)nc(-c4cccc(F)c4C)n3c2n1"
[A] 21.3 nM

[Q] Query (compound): "c1ccc(-c2ncn3c2nnc2cccnc23)cc1" ; field requested: IC50
[A] > 1000 nM

[Q] Quick one: IC50 of "CCOc1ncccc1-c1nc(C)c2nnc3ccc(OC)nc3n12" ?
[A] 196 nM

[Q] Endpoint output: IC50 of "COc1ccc2nnc3c(C)nc(-c4cc(F)cc(OC(C)C)c4)n3c2n1" . Value?
[A] > 1000 nM

[Q] Which IC50 reading was recorded for the compound "COc1ccc2nnc3c(C)nc(-c4cccc(OC)c4Cl)n3c2n1" ?
[A] 111 nM

[Q] Name the reported IC50 value associated with the compound "COc1ccc2nnc3c(C4CC4)nc(-c4ccccn4)n3c2n1"
[A] 5190 nM

[Q] Look up IC50: "COc1ccc2nnc3c(C)nc(-c4cccnc4OC(C)C)n3c2n1"
[A] 751 nM
